Consider the following compounds; for each one, report its IC50.
biological target: CDK2/CyclinE (Homo sapiens); test: CDK2/CyclinE Flashplate assay, 96-well format, biotinylated-Rb peptide substrate
Output spec: scalar in nM, unitless text.

# compound O=C(NCCS(=O)(=O)O)Nc1nc2cc(OS(=O)(=O)c3ccc(-n4ccnc4)cc3)ccc2[nH]1 ; its IC50 = 160

# compound COC(=O)Nc1nc2cc(OS(=O)(=O)c3ccc(NC4CCCC4)cc3)ccc2[nH]1 ; its IC50 = 700

# compound COC(=O)CNC(=O)Nc1nc2cc(OS(=O)(=O)c3ccc(NC4CCCC4)cc3)ccc2[nH]1 ; its IC50 = 20

# compound CC(C)NCCNC(=O)Nc1nc2cc(OS(=O)(=O)c3ccc(NC4CCCC4)cc3)ccc2[nH]1 ; its IC50 = 150
